Below, each of the compounds is paired with its reported IC50 value.
# target.entity: ULK1 kinase (Homo sapiens, UniProt O75385, E37A/K38A)
# Construct: (residues 1-283; ID NO: 1)
# Sequence (O75385 1-283 E37A/K38A): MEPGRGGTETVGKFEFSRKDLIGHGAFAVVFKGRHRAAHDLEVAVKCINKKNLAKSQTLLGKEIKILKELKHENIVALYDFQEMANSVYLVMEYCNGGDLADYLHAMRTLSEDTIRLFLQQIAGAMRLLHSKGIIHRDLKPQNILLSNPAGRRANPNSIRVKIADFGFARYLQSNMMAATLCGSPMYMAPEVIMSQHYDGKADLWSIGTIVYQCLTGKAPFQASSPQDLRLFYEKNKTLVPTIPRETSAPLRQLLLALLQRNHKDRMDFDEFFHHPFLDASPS
# assay.name: Biochemical assay for ULK1 (coupled pyruvate kinase/lactate dehydrogenase assay)
# test.parameters: 1 mM ATP, 0.1 nM ULK1; read-out: ULK1 (inhibition of biochemical activity), IC50

Sample records with IC50:
smiles.string	recorded.metric	recorded.value
CC/C(Nc1cnn(C(C)C)c1)=C1/C(=O)Nc2ccc(C(=O)CN(C)C)cc21	IC50	> 500 nM
CC/C(Nc1cnn(C2CCN(C(C)C)CC2)c1)=C1/C(=O)Nc2ccc(C(=O)NCCOC(F)(F)F)cc21	IC50	≤ 10 nM

**Q:** # lookup: IC50 of CC/C(Nc1ccc(N2CCN(C)CC2)c(F)c1)=C1/C(=O)Nc2ccc(C(=O)NCC(F)(F)F)cc21
**A:** ≤ 10 nM

**Q:** What about this compound? CC/C(Nc1cnn(C(C)C)c1)=C1/C(=O)Nc2ccc(C(=O)Nc3cnn(CC(F)(F)F)c3)cc21
**A:** > 500 nM

**Q:** What about this compound? CC/C(Nc1cnn(C2CCN(C(C)C)CC2)c1)=C1/C(=O)Nc2ccc(C(=O)NC3CC(F)(F)C3)cc21
**A:** ≤ 10 nM

**Q:** What about this compound? CC/C(Nc1cnn(C(C)C)c1)=C1/C(=O)Nc2ccc(C(=O)NCC(C)(C)F)cc21
**A:** ≤ 10 nM

**Q:** What about this compound? CC/C(Nc1ccc2nn(C(C)C)cc2c1)=C1/C(=O)Nc2ccc(C(=O)NCC(F)(F)F)cc21
**A:** 10 to 100 nM

**Q:** What about this compound? CC/C(Nc1cnn(C2CC3(C2)CN(C)C3)c1)=C1/C(=O)Nc2ccc(C(=O)NCC(F)(F)F)cc21
**A:** ≤ 10 nM

**Q:** What about this compound? CC/C(Nc1cccc(N2CCN(C(C)C)CC2)c1)=C1/C(=O)Nc2ccc(C(=O)NC[C@H]3CCCO3)cc21
**A:** 10 to 100 nM

---

# Tested on: ULK kinase substrate ATG13 (pS318-ATG13) in MiaPaCa-2 cells
# assay.name: pATG13 levels of mutant KRas MiaPaCa-2 cells after treatment with ULK inhibitors in combination with trametinib (ELISA)
# Assay type: cell-based, human
Below, each of the compounds is paired with its reported IC50 value.

**Q:** Report IC50 for CC/C(Nc1cnn(C2CN(CC)C2)c1)=C1/C(=O)Nc2ccc(C(=O)NC[C@H]3CCCO3)cc21 tested on ULK kinase substrate ATG13 (pS318-ATG13) in MiaPaCa-2 cells.
**A:** ≤ 100 nM

**Q:** What about this compound? CC/C(Nc1cn[nH]c1)=C1/C(=O)Nc2ccc(C(=O)NCC(F)(F)F)cc21
**A:** 100 to 300 nM

**Q:** What about this compound? CC/C(Nc1ccc(N2CC3CC2CN3C)cc1)=C1/C(=O)Nc2ccc(C(=O)NCC(F)(F)F)cc21 (stereo not shown)
**A:** ≤ 100 nM

**Q:** What about this compound? CC/C(Nc1ccc(N2CC3(CN(C)C3)C2)cc1)=C1/C(=O)Nc2ccc(C(=O)NCC(C)C)cc21
**A:** ≤ 100 nM
